measured_target: MAP kinase-interacting serine/threonine-protein kinase 2 (Homo sapiens)
experimental_conditions: at 1 µM
Description: GSK_PKIS: MNK2 mean inhibition at 1 uM [Nanosyn]
Give inhibition for every item shown.
Dear colleague, please send the value followed by its unit.

stdin: Give the reported value of inhibition for this record: N#Cc1c(NC(=O)c2ccccc2F)sc2c1CCCC2
stdout: 2.26%

stdin: Give the reported value of inhibition for this record: ON=C1CCc2cc(-c3nc(C4CCNCC4)[nH]c3-c3ccncc3)ccc21
stdout: 0.78%

stdin: Give the reported value of inhibition for this record: NS(=O)(=O)c1ccc(NC=C2C(=O)Nc3ccc4ncsc4c32)cc1
stdout: 18.1%

stdin: Give the reported value of inhibition for this record: Cc1cc(O)cc(C)c1/C=C/c1cncc(C(=O)N(C)C)c1
stdout: 9.99%

stdin: Give the reported value of inhibition for this record: CN(C)c1cc2c(Nc3ccc4c(cnn4Cc4ccccc4)c3)ncnc2cn1
stdout: 23%

stdin: Give the reported value of inhibition for this record: [O-][S+]1CCN(Cc2ccc(-c3ccc4ncnc(Nc5ccc(OCc6ccccc6)c(Cl)c5)c4c3)o2)CC1
stdout: 8.54%

stdin: Give the reported value of inhibition for this record: CN(C)C(=O)O[C@H]1CN[C@H](C#Cc2cc3ncnc(Nc4ccc(OCc5cccc(F)c5)c(Cl)c4)c3s2)C1
stdout: 6.67%

stdin: Give the reported value of inhibition for this record: NS(=O)(=O)c1cccc(Nc2cc(-c3ccc(F)cc3)n[nH]2)c1
stdout: 13%

stdin: Give the reported value of inhibition for this record: NS(=O)(=O)c1ccc(-c2cc3ccncc3cc2OCc2ccccc2)cc1
stdout: 26.4%

stdin: Give the reported value of inhibition for this record: O=C1Nc2ccccc2/C1=C/Nc1ccc2[nH]c(=O)[nH]c2c1
stdout: 10.9%

stdin: Give the reported value of inhibition for this record: C[C@@H](Oc1cc(-n2cnc3ccc(OCC4CCN(C)CC4)cc32)sc1C(N)=O)c1ccccc1C(F)(F)F
stdout: 4.25%

stdin: Give the reported value of inhibition for this record: COC(=O)c1ccc2c(c1)C(=Cc1cc(Br)c(O)c(Br)c1)C(=O)N2
stdout: 19%

stdin: Give the reported value of inhibition for this record: NS(=O)(=O)c1cccc(-c2cc3ccncc3cc2OCc2ccccc2)c1
stdout: 25.1%

stdin: Give the reported value of inhibition for this record: Nc1nccc(-c2c(-c3ccc(F)cc3)ncn2CCCN2CCOCC2)n1
stdout: 0.94%

====

Test system: Proto-oncogene tyrosine-protein kinase receptor Ret (Homo sapiens), P07949 [Y791F]
Sequence (P07949 whole entry Y791F): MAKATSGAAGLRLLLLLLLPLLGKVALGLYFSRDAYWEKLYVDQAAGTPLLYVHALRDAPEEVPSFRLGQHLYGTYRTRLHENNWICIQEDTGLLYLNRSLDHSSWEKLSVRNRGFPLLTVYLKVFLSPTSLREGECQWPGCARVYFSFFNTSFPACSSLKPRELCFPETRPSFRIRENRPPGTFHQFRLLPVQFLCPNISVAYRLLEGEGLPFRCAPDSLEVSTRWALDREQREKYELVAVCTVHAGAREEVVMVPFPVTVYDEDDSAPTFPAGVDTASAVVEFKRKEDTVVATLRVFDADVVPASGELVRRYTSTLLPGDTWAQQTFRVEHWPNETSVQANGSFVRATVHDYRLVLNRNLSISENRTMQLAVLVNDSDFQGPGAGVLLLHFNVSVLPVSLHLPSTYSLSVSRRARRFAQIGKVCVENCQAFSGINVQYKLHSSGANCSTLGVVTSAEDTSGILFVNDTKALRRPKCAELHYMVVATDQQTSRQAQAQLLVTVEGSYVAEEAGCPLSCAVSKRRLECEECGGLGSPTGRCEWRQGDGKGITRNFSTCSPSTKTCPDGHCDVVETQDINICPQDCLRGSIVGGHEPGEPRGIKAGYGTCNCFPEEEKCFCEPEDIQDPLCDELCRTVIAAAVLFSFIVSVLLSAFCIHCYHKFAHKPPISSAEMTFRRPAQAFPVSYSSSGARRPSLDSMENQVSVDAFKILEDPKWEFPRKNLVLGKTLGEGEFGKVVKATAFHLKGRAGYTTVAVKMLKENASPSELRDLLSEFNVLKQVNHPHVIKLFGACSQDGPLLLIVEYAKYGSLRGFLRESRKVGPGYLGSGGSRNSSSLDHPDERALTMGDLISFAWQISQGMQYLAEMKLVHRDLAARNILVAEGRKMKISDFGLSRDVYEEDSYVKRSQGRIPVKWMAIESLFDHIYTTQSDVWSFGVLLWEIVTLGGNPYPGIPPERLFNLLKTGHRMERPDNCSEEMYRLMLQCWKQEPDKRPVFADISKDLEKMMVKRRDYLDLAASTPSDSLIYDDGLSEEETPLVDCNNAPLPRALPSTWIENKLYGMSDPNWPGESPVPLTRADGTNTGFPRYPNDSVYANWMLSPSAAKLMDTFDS
experimental_conditions: at 1 µM
reported_property: inhibition (%)
State just the number; it will be interpreted in %.

stdin: Give the reported value of inhibition for this record: NS(=O)(=O)c1ccc(N/N=C2\C(=O)Nc3ccc(Cl)cc32)cc1
stdout: 22.3

stdin: Give the reported value of inhibition for this record: CCn1c(-c2nonc2N)nc2c(C#CC(C)(C)O)nc(OCCNC)cc21
stdout: 28.9

stdin: Give the reported value of inhibition for this record: c1ccc(Nc2ncc(-c3ccccc3)o2)cc1
stdout: 11.5

stdin: Give the reported value of inhibition for this record: O=C1Nc2ccc(-c3cccnc3)cc2C1=Cc1cc(Br)c(O)c(Br)c1
stdout: 1.19

stdin: Give the reported value of inhibition for this record: N#Cc1cccc(Nc2nccc(-c3cnn4ncccc34)n2)c1
stdout: 37.3

stdin: Give the reported value of inhibition for this record: Nc1ccc(C#Cc2cncnc2Nc2ccc(OCc3cccc(F)c3)c(Cl)c2)cc1
stdout: 4.06

stdin: Give the reported value of inhibition for this record: CCOc1nccc2c1nc(-c1nonc1N)n2CC
stdout: 28.7

stdin: Give the reported value of inhibition for this record: Cc1cc(O)cc(C)c1/C=C/c1cncc(C(=O)N(C)C)c1
stdout: 11.9

stdin: Give the reported value of inhibition for this record: FC(F)(F)c1ccc(-c2nn3ncccc3c2-c2ccnc(Nc3ccc4c(c3)OCCO4)n2)cc1
stdout: 43.9

stdin: Give the reported value of inhibition for this record: Cc1nc(-c2ccccc2)n2nc(NCCCN3CCOCC3)ncc12
stdout: 4.86

stdin: Give the reported value of inhibition for this record: Cc1ccc(C(=O)NC2CC2)cc1-c1ccc2[nH]ncc2c1
stdout: -0.71

stdin: Give the reported value of inhibition for this record: COc1ccc(-c2nn3ncccc3c2-c2ccnc(Nc3cccc(C(F)(F)F)c3)n2)cc1
stdout: 6.6

stdin: Give the reported value of inhibition for this record: CCn1c(-c2nonc2N)nc2ccc(F)cc21
stdout: 11.3

stdin: Give the reported value of inhibition for this record: CCS(=O)(=O)c1ccc(OC)c(Nc2nccc(N(C)c3ccc4c(C)n[nH]c4c3)n2)c1
stdout: 80.2

stdin: Give the reported value of inhibition for this record: NC(=O)c1sc(-n2cnc3ccccc32)cc1OCc1ccccc1Br
stdout: 15.3

stdin: Give the reported value of inhibition for this record: COc1cc2ncnc(Nc3ccc4c(cnn4Cc4ccccc4)c3)c2cc1OC
stdout: 40

stdin: Give the reported value of inhibition for this record: OCc1ccc(-c2nc(-c3ccccn3)c(-c3ccc4c(c3)OCO4)[nH]2)cc1
stdout: 6.59

stdin: Give the reported value of inhibition for this record: Nc1nccc(C#Cc2cncnc2Nc2ccc(OCc3cccc(F)c3)c(Cl)c2)n1
stdout: 10.5

stdin: Give the reported value of inhibition for this record: Nc1nccc(-c2c(-c3ccc(F)cc3)ncn2CCCN2CCOCC2)n1
stdout: 24.9

stdin: Give the reported value of inhibition for this record: COc1cc(Nc2nccc(-c3cnn4ncccc34)n2)cc(OC)c1
stdout: 33.6

stdin: Give the reported value of inhibition for this record: CS(=O)(=O)Nc1cccc(-c2ccc3c(NC(=O)C4CC4)n[nH]c3c2)c1
stdout: -0.36

stdin: Give the reported value of inhibition for this record: Oc1cccc(-c2nc(-c3ccccc3)[nH]c2-c2ccncc2)c1
stdout: 71.2

====

measured_target: Ephrin type-A receptor 4 (Homo sapiens)
experimental_conditions: at 1 µM
Description: GSK_PKIS: EPHA4 mean inhibition at 1 uM [Nanosyn]
Give inhibition for every item shown.

stdin: Give the reported value of inhibition for this record: N#Cc1c(NC(=O)c2ccccc2F)sc2c1CCCC2
stdout: -0.99%

stdin: Give the reported value of inhibition for this record: [O-][S+]1CCN(Cc2ccc(-c3ccc4ncnc(Nc5ccc(OCc6ccccc6)c(Cl)c5)c4c3)o2)CC1
stdout: 3.82%

stdin: Give the reported value of inhibition for this record: NS(=O)(=O)c1ccc(Nc2cc(-c3cccc(O)c3)n[nH]2)cc1
stdout: 7.86%

====

measured_target: Dual specificity tyrosine-phosphorylation-regulated kinase 2 (Homo sapiens) (UniProt Q92630);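 further: values are mean percent inhibition of DYRK2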
Sequence (Q92630 whole entry): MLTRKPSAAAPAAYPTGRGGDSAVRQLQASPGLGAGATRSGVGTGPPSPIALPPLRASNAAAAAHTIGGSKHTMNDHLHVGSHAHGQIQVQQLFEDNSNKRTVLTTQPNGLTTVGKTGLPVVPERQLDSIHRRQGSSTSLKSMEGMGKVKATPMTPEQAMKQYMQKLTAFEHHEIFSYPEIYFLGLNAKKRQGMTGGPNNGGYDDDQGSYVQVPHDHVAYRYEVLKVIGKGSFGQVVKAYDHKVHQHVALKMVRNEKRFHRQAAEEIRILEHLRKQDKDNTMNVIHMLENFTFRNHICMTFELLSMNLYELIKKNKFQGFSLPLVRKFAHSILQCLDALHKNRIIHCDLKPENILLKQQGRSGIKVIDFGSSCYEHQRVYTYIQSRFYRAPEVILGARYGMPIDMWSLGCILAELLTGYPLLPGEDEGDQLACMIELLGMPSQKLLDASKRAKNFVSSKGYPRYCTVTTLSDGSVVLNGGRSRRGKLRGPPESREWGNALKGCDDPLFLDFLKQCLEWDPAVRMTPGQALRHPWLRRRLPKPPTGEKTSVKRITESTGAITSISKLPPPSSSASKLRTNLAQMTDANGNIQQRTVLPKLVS
experimental_conditions: at 0.1 µM
reported_property: inhibition

stdin: Give the reported value of inhibition for this record: COC(=O)Nc1nc2cc(Oc3ccc(NC(=O)Nc4cccc(Br)c4)cc3)ccc2[nH]1
stdout: 3.11%

stdin: Give the reported value of inhibition for this record: Nc1nccc(-c2c(-c3ccc(F)cc3)ncn2CCCN2CCOCC2)n1
stdout: 3.1%

stdin: Give the reported value of inhibition for this record: COC(=O)c1cncc(/C=C/c2c(C)cc(O)cc2C)c1
stdout: 3.09%

stdin: Give the reported value of inhibition for this record: CN(C)c1cc2c(Nc3ccc4c(cnn4Cc4ccccc4)c3)ncnc2cn1
stdout: 2.42%

stdin: Give the reported value of inhibition for this record: [O-][S+]1CCN(Cc2ccc(-c3ccc4ncnc(Nc5ccc(OCc6ccccc6)c(Cl)c5)c4c3)o2)CC1
stdout: 1.29%

====

measured_target: PAS domain-containing serine/threonine-protein kinase (Homo sapiens) (UniProt Q96RG2);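 further: reported value is the mean percent inhibition of PASK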
Sequence (Q96RG2 whole entry, the tested form may be a part): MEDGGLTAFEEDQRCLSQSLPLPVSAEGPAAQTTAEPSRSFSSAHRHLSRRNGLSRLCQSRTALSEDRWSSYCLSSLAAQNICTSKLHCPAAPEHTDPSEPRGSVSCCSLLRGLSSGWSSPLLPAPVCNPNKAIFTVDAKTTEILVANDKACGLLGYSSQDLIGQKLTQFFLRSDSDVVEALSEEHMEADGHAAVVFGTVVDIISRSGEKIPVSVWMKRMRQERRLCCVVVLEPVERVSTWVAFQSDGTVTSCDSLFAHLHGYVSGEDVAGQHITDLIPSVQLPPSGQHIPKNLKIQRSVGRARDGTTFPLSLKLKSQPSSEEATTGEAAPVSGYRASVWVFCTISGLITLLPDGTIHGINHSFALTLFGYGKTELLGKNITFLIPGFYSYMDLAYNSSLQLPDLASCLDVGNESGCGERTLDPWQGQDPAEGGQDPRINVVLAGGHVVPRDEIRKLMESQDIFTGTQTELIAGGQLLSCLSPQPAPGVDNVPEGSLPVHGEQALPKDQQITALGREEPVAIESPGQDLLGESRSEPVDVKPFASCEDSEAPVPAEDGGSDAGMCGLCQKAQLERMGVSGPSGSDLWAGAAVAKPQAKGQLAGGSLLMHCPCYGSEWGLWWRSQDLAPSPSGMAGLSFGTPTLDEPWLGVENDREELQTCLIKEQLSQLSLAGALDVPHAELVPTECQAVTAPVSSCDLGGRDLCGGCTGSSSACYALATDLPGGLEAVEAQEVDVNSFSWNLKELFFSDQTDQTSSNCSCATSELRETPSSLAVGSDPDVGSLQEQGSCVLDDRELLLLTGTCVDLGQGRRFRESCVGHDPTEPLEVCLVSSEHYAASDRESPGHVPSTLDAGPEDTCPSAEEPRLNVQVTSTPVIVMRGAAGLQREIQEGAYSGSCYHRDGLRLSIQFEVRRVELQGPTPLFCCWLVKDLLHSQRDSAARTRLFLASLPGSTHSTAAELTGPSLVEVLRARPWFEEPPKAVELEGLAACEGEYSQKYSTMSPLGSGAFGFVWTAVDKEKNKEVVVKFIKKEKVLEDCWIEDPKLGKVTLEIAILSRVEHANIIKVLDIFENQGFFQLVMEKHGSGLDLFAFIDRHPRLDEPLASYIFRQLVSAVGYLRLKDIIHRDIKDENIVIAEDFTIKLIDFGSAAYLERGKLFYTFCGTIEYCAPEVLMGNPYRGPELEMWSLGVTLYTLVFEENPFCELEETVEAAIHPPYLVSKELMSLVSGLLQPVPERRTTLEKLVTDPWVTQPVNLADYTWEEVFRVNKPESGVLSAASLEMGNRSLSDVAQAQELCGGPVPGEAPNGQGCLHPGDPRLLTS
experimental_conditions: at 1 µM
Give inhibition for every item shown.

stdin: Give the reported value of inhibition for this record: [O-][S+]1CCN(Cc2ccc(-c3ccc4ncnc(Nc5ccc(OCc6ccccc6)c(Cl)c5)c4c3)o2)CC1
stdout: -0.53%

stdin: Give the reported value of inhibition for this record: Cc1nc(-c2ccccc2)n2nc(NCCCN3CCOCC3)ncc12
stdout: -0.06%

stdin: Give the reported value of inhibition for this record: CC(C)c1ccc2c(c1)NC(=O)/C2=N/Nc1ccc(S(N)(=O)=O)cc1
stdout: 0.24%

stdin: Give the reported value of inhibition for this record: COc1cc2ncn(-c3cc(OCc4ccccc4S(C)(=O)=O)c(C#N)s3)c2cc1OC
stdout: 0.31%

stdin: Give the reported value of inhibition for this record: NS(=O)(=O)c1cccc(-c2cc3ccncc3cc2OCc2ccccc2)c1
stdout: -0.76%

stdin: Give the reported value of inhibition for this record: Cc1ccc(Nc2ccnc(Nc3cccc(C(N)=O)c3)n2)cc1O
stdout: 0.18%

stdin: Give the reported value of inhibition for this record: NS(=O)(=O)c1ccc(Nc2cc(-c3cccc(O)c3)n[nH]2)cc1
stdout: -1.99%

stdin: Give the reported value of inhibition for this record: CN(C)C(=O)O[C@@H]1CN[C@@H](C#Cc2cc3ncnc(Nc4ccc(OCc5cccc(F)c5)c(Cl)c4)c3s2)C1
stdout: -0.12%

stdin: Give the reported value of inhibition for this record: Cc1cc(-c2ccccn2)cc(C)c1/C=C/c1cncc(-c2nn[nH]n2)c1
stdout: -1.06%

stdin: Give the reported value of inhibition for this record: COc1cc2ncnc(Nc3ccc(C)c(O)c3)c2cc1OC
stdout: 0.97%

stdin: Give the reported value of inhibition for this record: NS(=O)(=O)c1ccc(-c2cc3ccncc3cc2OCc2ccccc2)cc1
stdout: 0.09%

stdin: Give the reported value of inhibition for this record: NS(=O)(=O)c1ccc(NC=C2C(=O)Nc3ccc4ncsc4c32)cc1
stdout: -0.6%

stdin: Give the reported value of inhibition for this record: N#Cc1c(NC(=O)c2ccccc2F)sc2c1CCCC2
stdout: 1.22%

stdin: Give the reported value of inhibition for this record: C[C@@H](Oc1cc(-n2cnc3ccc(OC[C@@H](O)CO)cc32)sc1C(N)=O)c1ccccc1Cl
stdout: 1.99%

stdin: Give the reported value of inhibition for this record: COc1ccc(-c2nn3ncccc3c2-c2ccnc(Nc3cccc(C(F)(F)F)c3)n2)cc1
stdout: 0.1%

stdin: Give the reported value of inhibition for this record: CCCN1CCCC(c2ccc(Nc3nc(Nc4cc(F)ccc4C(N)=O)c4cc[nH]c4n3)c(OC)c2)C1 (stereo unspecified)
stdout: 8.59%

stdin: Give the reported value of inhibition for this record: NS(=O)(=O)c1cccc(Nc2cc(-c3ccc(F)cc3)n[nH]2)c1
stdout: 2.88%

stdin: Give the reported value of inhibition for this record: c1ccc(Cc2nc3ccc(Nc4ncnc5ccccc45)cc3[nH]2)cc1
stdout: 0.27%

stdin: Give the reported value of inhibition for this record: N#Cc1cccc(Nc2nccc(-c3cnn4ncccc34)n2)c1
stdout: 0.01%

stdin: Give the reported value of inhibition for this record: COc1cccc(-n2ncc3c(N/N=C/c4ccc(S(C)(=O)=O)cc4)ncnc32)c1
stdout: 0.02%

stdin: Give the reported value of inhibition for this record: CCS(=O)(=O)c1ccc(OC)c(Nc2nccc(N(C)c3ccc4c(C)n[nH]c4c3)n2)c1
stdout: 0.34%
